target: rat nNOS (Rattus norvegicus, UniProt P29476); experiment: NO hemoglobin capture assay, rat nNOS; type: biochemical; conditions: Table 5; Ki from IC50 by Cheng-Prusoff, 8 to 11 concentrations; read-out: Ki RnNOS
Sequence (P29476 whole entry): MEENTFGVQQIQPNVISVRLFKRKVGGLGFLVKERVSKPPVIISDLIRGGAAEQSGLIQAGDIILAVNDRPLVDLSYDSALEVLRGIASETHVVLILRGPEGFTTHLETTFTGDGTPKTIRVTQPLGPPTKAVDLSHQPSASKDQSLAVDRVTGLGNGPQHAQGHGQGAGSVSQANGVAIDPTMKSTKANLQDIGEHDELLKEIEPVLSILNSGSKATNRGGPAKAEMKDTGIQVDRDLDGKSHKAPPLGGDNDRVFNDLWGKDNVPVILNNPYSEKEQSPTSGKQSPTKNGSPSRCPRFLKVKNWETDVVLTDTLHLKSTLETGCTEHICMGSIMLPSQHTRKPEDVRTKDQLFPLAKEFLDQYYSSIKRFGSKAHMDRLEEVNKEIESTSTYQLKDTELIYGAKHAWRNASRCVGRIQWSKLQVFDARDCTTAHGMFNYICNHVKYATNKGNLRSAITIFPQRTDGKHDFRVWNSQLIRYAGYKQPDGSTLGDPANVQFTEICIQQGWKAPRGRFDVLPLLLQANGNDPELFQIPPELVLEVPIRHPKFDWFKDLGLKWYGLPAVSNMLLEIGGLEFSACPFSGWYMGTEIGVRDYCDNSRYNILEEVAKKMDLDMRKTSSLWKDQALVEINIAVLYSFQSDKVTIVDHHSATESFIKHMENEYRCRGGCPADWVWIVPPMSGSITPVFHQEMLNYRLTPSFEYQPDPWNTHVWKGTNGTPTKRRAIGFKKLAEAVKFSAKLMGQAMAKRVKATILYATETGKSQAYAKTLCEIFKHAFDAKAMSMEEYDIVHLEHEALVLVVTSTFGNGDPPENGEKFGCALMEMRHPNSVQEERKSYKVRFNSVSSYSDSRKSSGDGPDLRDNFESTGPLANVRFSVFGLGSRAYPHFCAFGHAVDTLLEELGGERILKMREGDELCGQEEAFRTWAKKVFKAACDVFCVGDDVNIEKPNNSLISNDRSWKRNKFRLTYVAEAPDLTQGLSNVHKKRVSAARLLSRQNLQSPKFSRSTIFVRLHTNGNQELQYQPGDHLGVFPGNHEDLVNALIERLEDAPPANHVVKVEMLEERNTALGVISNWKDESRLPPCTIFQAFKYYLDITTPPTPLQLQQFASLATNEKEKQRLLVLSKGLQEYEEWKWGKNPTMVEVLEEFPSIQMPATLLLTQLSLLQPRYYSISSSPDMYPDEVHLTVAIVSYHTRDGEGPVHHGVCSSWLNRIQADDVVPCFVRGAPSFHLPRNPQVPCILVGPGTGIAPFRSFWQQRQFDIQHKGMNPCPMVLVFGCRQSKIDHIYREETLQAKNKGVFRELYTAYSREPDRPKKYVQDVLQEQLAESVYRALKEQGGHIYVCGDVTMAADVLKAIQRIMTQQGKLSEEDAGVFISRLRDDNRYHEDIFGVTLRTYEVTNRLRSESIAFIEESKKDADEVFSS
Where a name gives a salt, the structure may show the parent alone.
Measured Ki, listed per entry.
All answers are understood in nM, so give the number only.

| compound | Ki / nM |
| --- | --- |
| Cc1cc(N)nc(C#CCN2CCN(C)CC2)c1 | 947 |
| CNCC#Cc1cc(C)cc(N)n1 [Compound 71, hydrochloride] | 88 |

# evaluate next
-- ask Provide rat nNOS (Rattus norvegicus, UniProt P29476) Ki reading for CNCCCc1cc(C)cc(N)n1 [Compound 70, hydrochloride] .
-- reply 29

The reported measurements were obtained from patent US12240815B2.
